Provide the recorded pKd for the entries that follow.
target_desc: T1, EsCas13d, nuclease-dead (Eubacterium siraeum, UniProt B0MS50, R295A;H300A;R849A;H854A)
T1 sequence: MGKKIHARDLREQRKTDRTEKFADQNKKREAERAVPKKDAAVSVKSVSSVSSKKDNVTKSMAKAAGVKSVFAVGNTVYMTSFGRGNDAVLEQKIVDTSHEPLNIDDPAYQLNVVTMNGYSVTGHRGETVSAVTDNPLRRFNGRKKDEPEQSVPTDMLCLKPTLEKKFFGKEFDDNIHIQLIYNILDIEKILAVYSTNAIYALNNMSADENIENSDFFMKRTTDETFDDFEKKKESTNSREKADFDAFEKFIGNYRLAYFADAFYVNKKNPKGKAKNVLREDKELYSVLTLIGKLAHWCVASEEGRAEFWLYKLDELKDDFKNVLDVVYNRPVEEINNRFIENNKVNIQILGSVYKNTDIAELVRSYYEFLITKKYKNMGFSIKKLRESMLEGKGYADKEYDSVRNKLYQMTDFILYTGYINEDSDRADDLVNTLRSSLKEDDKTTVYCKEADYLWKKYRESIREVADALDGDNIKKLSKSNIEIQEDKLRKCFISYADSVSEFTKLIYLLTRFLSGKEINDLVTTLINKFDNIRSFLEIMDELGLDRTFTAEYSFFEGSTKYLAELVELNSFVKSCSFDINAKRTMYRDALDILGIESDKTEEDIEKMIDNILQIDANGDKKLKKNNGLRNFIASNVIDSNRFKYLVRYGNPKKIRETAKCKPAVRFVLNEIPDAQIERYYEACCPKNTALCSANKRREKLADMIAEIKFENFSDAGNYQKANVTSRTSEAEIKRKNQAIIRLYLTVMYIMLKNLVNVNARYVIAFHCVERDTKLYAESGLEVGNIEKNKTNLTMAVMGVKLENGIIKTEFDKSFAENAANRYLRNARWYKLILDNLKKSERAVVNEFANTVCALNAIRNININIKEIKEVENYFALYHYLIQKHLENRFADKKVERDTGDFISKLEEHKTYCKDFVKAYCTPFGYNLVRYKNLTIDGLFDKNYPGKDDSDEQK
experiment_summary: crRNA (strand 1, pre-loaded); Mg2+; 40 mM Tris-HCl pH 7.5, 150 mM NaCl, 6 mM MgCl2, 1 mM DTT, 0.1% Tween-20, 0.2 mg/ml BSA; 25 C; 10 min per concentration, then washed
stated_conditions: tags: His6-TwinStrep-SUMO cleaved; N-terminal SNAP kept (SNAP-Surface 488); label: 3' end held by stalled T7 RNA polymerase
# reply with the number alone; pKd is -log10 of concentration in mol/L

Ask | Requested read-out: pKd. Entry: target 2 MT 5'PFS AGA 3'PFS ACU (mixed) RNA 1: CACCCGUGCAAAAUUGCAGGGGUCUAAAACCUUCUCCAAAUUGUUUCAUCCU RNA 2: GGGAAUGGAUCCACAUCUACGAAUUCAGAAGGAUGAAACAAUUUGGAGAAGACUAGAUCGGAAGAGCACACGU
Reply | 7.94

Ask | State the recorded pKd for this entry: target 1 insC 3' of 20,insU 3' of 13 (mixed) RNA 1: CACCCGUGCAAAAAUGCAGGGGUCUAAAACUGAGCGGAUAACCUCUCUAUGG RNA 2: GGGAAUGGAUCCACAUCUACGAAUUCGUACCACUAGAGAGUGUUAUCCGCUCACCGAGAUCGGAAGAGCACACGU
Reply | 8.16

Ask | Quick check: pKd of target 2 MT 5'PFS UCA 3'PFS AAG (mixed) RNA 1: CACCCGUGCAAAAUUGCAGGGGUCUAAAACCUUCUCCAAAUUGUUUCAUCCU RNA 2: GGGAAUGGAUCCACAUCUACGAAUUCUCAAGGAUGAAACAAUUUGGAGAAGAAGAGAUCGGAAGAGCACACGU ?
Reply | 8.17

Ask | State the recorded pKd for this entry: target 2 MT 5'PFS UAC 3'PFS AUG (mixed) RNA 1: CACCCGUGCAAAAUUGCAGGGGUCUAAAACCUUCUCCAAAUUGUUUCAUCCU RNA 2: GGGAAUGGAUCCACAUCUACGAAUUCUACAGGAUGAAACAAUUUGGAGAAGAUGAGAUCGGAAGAGCACACGU
Reply | 8.17

Cited source: paper PMC10786891
